Target: CAMKK2 (Homo sapiens)
Construct: made in house
Sequence (Q96RR4 whole entry): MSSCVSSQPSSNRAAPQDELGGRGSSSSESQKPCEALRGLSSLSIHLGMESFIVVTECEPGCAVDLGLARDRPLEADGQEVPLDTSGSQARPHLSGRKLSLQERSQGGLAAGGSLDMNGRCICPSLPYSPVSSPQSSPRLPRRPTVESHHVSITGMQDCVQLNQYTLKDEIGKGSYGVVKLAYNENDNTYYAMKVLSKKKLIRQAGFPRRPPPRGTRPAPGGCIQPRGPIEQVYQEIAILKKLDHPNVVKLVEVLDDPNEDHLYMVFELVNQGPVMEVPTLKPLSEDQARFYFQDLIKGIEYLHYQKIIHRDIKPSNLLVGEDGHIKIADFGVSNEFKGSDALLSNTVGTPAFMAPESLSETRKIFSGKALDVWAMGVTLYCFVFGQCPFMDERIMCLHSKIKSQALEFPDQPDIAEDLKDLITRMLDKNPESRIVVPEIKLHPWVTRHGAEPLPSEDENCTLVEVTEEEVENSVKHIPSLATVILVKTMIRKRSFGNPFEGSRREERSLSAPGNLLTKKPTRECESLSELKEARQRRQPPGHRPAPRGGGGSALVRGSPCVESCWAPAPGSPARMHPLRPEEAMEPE
Assay: CAMKK2 enzyme assay (radiometric, CaMKKtide)
Assay type: biochemical
Details: 1.0 µM inhibitor; read-out: PoC (activity remaining)
A collection of molecules and their measured remaining activity at 1 µM
# number then unit; no other words

Example entries and their recorded answers appear below.
- Compound String: "COc1cc(N2CCC(N(C)C)CC2)ccc1Nc1ncc(Cl)c(Nc2ccccc2P(C)(C)=O)n1"
  Property Label: "remaining activity at 1 µM"
  Assay Result: "3%"
- Compound String: "CC(=O)c1cnc2ccc(-c3cc(Cl)c(O)c(Cl)c3)nc2c1N[C@H]1CC[C@H](CN(C)C)CC1"
  Property Label: "remaining activity at 1 µM"
  Assay Result: "0%"
- Compound String: "COc1cc(N2CCC(N3CCN(C)CC3)CC2)ccc1Nc1ncc(Cl)c(Nc2ccccc2S(=O)(=O)C(C)C)n1"
  Property Label: "remaining activity at 1 µM"
  Assay Result: "42%"
- Compound String: "Cc1c[nH]c(-c2cnc(NCCNc3ccc(C#N)cn3)nc2-c2ccc(Cl)cc2Cl)n1"
  Property Label: "remaining activity at 1 µM"
  Assay Result: "96%"
- Compound String: "O=C(O)c1ccc(-c2c[nH]c3ncc(-c4ccccc4)cc23)cc1C1CCCC1"
  Property Label: "remaining activity at 1 µM"
  Assay Result: "3%"
- Compound String: "CC(C)c1cc(CNc2nc(Nc3cc(C4CC4)[nH]n3)cc(N3CCN(C)CC3)n2)on1"
  Property Label: "remaining activity at 1 µM"
  Assay Result: "26%"
- Compound String: "CN(C)S(=O)(=O)c1ccc2c(c1)/C(=C/c1cc3c([nH]1)CCCC3)C(=O)N2"
  Property Label: "remaining activity at 1 µM"
  Assay Result: "71%"
- Compound String: "CC(C)[C@H](CO)Nc1nc(Nc2cc(N)cc(Cl)c2)c2ncn(C(C)C)c2n1"
  Property Label: "remaining activity at 1 µM"
  Assay Result: "22%"

Record lookup: for CAMKK2 (Homo sapiens), what remaining activity at 1 µM belongs to CCN1CCN(c2ccc(Nc3cc(N(C)C(=O)Nc4c(Cl)c(OC)cc(OC)c4Cl)ncn3)cc2)CC1 ?
96%

For CAMKK2 (Homo sapiens), provide remaining activity at 1 µM of O=C(NCCCNc1nc(Nc2cccc(NC(=O)N3CCCC3)c2)ncc1I)c1cccs1 please.
33%

Write down the reported remaining activity at 1 µM of O=C(Nc1nc2cccc(-c3ccc(CN4CCS(=O)(=O)CC4)cc3)n2n1)C1CC1 , test system: CAMKK2 (Homo sapiens).
72%
